Cited source: ChEMBL document CHEMBL1921692

- assay.info: Volume of distribution at steady state in cynomolgus monkey at 0.5 mg/kg, iv
- test.settings: in vivo, read-out: Vdss
test.readout: Vd (L/kg)

[[record]]
molecular_string = "C[C@@H]1C(=O)N[C@H](Cc2ccc(F)cc2)C(=O)NCCCc2ccc(F)cc2OCCN[C@@H](C2CC2)C(=O)N1C"
test_readout = "Vd"
measured_number = 0.66


----------
- subject.of.test: UniProtKB P08684
- Sequence (P08684 whole entry): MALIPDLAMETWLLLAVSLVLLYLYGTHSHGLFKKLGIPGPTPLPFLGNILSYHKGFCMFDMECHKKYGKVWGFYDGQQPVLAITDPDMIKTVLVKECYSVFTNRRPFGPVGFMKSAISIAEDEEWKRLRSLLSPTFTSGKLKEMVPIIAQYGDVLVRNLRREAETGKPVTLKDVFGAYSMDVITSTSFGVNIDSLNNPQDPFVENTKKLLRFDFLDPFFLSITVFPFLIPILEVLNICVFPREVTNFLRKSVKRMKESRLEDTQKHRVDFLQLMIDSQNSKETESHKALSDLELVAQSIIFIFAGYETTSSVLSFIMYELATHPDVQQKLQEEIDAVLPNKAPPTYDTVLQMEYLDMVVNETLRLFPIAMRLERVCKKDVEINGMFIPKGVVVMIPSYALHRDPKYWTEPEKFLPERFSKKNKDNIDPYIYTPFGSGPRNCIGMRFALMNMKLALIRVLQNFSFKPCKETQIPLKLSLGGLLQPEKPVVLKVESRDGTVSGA
test.readout: IC50 (µM)

[[record]]
compound = "C[C@@H]1CN[C@@H](C2CC2)C(=O)N(C)[C@H](C)C(=O)N[C@H](Cc2ccc(F)cc2)C(=O)NCCCc2ccccc2O1.Cl.O [ULIMORELIN HYDROCHLORIDE]"
measured_number = 2.4

